These entries and their values trace back to patent US20080318911A1.

protocol text: Permeability by passive diffusion (PAMPA)
Format: in vitro ADME
setup conditions: PAMPA, pH 7.4, Table 8
recorded metric: Papp at 4 h, 10 μM (×10⁻⁶ cm/s)
Give just the numeric value; ×10⁻⁶ cm/s need not be written.

Please look up its Papp at 4 h, 10 μM: C[C@]12CCC/C(=C\C=C3\CC(O)C[C@H](O)C3)C1CC=C2C1(C/C=C\C(O)(C(F)(F)F)C(F)(F)F)CC1 (stereo partly drawn) [Compound 7]
47.8

Dear colleague, I am looking for the recorded Papp at 4 h, 10 μM of the following compound: C=C1/C(=C\C=C2/CCC[C@]3(C)C(C4(C/C=C\C(O)(C(F)(F)F)C(F)(F)F)CC4)=CCC23)CC(O)C[C@@H]1O (stereo partly drawn) [Compound 8]
50

// query Papp at 4 h, 10 μM value for entry CC(C)(O)CCCC1(C2=CCC3/C(=C/C=C4/CC(O)C[C@H](O)C4)CCC[C@]23C)CC1 (stereo partly drawn) [Compound 9]
36

---

Tested on: NHEK
protocol text: Proliferation assay: NHEK normal human keratinocytes
Type: cell-based
setup conditions: 72 h culture, CyQuant proliferation assay
Rule: measured IC50 below 4 µM gets Satisfied; anything equal to or greater than 4 µM gets Not satisfied.

- compound: "C[C@]12CCC/C(=C\\C=C3\\CC(O)C[C@H](O)C3)C1CC=C2C1(C/C=C\\C(O)(C(F)(F)F)C(F)(F)F)CC1 (stereo partly drawn)"
  classification: "Not satisfied"

Please let me know if C=C1/C(=C\C=C2/CCC[C@]3(C)C([C@H](C)CCCC(C)(C)O)CC[C@@H]23)C[C@@H](O)C[C@@H]1O (stereo partly drawn) [1,25(OH)2D3, 1,25-dihydroxycholecalciferol, reference compound] shows IC50 below 4 µM.
Not satisfied

Decide: IC50 of C=C1/C(=C\C=C2/CCC[C@]3(C)C(C4(CC#CC(O)(C(F)(F)F)C(F)(F)F)CC4)=CCC23)CC(O)C[C@@H]1F (stereo partly drawn) strictly below 4 µM?
Satisfied

Dear colleague, could you confirm whether IC50 of C=C1/C(=C\C=C2/CCC[C@]3(C)C(C4(CCCC(C)(C)O)CC4)=CCC23)CC(O)C[C@@H]1O (stereo partly drawn) falls below 4 µM? Thanks.
Not satisfied

Item C[C@]12CCC/C(=C\C=C3\CC(O)C[C@H](O)C3)C1CC=C2C1(C/C=C/C(O)(C(F)(F)F)C(F)(F)F)CC1 (stereo partly drawn) : IC50 beneath 4 µM, strictly?
Not satisfied

---

log10(IC50): recorded values
System: Renin mRNA in As4.1 cells
protocol text: Renin mRNA inhibition in murine juxtaglomerular cell line As4.1
Assay type: cell-based
setup conditions: Mus musculus, 24 h, real time PCR normalized versus β-actin, read-out: Renin mRNA inh.As4.1/wt
Note: values are log10 of IC50 expressed in nM.

- compound: "C=C1/C(=C\\C=C2/CCC[C@]3(C)C(C4(C/C=C/C(O)(C(F)(F)F)C(F)(F)F)CC4)=CCC23)CC(O)C[C@@H]1F (some centres unmarked) [Compound 13]"
  log10(IC50): 0.98
- compound: "C[C@]12CCC/C(=C\\C=C3\\CC(O)C[C@H](O)C3)C1CC=C2C1(CC#CC(O)(C(F)(F)F)C(F)(F)F)CC1 (some centres unmarked) [Compound 3]"
  log10(IC50): -0.14
- compound: "CC(C)(O)C#CCC1(C2=CCC3/C(=C/C=C4/CC(O)C[C@H](O)C4)CCC[C@]23C)CC1 (some centres unmarked) [Compound 2]"
  log10(IC50): 1.99

Name the reported log10(IC50) value associated with the compound C=C1/C(=C\C=C2/CCC[C@]3(C)C(C4(C/C=C/C(O)(C(F)(F)F)C(F)(F)F)CC4)=CCC23)CC(O)C[C@@H]1O (some centres unmarked) [Compound 6]
-0.26

What does the record list as log10(IC50) for C=C1/C(=C\C=C2/CCC[C@]3(C)C(C4(CC#CC(O)(C(F)(F)F)C(F)(F)F)CC4)=CCC23)CC(O)C[C@@H]1F (some centres unmarked) [Compound 12] ?
0.99

Please give the measured log10(IC50) for this compound: C=C1/C(=C\C=C2/CCC[C@]3(C)C(C4(CC#CC(C)(C)O)CC4)=CCC23)CC(O)C[C@@H]1F (some centres unmarked) [Compound 11]
2.48

Could you share which log10(IC50) value was measured for C=C1/C(=C\C=C2/CCC[C@]3(C)C(C4(CC#CC(C)(C)O)CC4)=CCC23)CC(O)C[C@@H]1O (some centres unmarked) [Compound 1] ?
0.97

Would you kindly share the measured log10(IC50) for C=C1/C(=C\C=C2/CCC[C@]3(C)C(C4(C/C=C\C(O)(C(F)(F)F)C(F)(F)F)CC4)=CCC23)CC(O)C[C@@H]1O (some centres unmarked) [Compound 8] ?
0.20

Looking for the measured log10(IC50) of C=C1/C(=C\C=C2/CCC[C@]3(C)C(C4(CCCC(C)(C)O)CC4)=CCC23)CC(O)C[C@@H]1O (some centres unmarked) [Compound 10] , can you help?
1.42
